Where do these numbers come from? They come from a melting point compilation (Tetko et al.; mined from patent text by program, amines drawn as free bases though some values may be those of a salt).

As shown below, each of these compounds has a reported melting point value.

CS(=O)(=O)N1CC1COc1ccc(C#N)cc1 (stereo unspecified) : 79 to 81 °C
O=C(Nc1cccc2cc(Br)cnc12)C1c2ccccc2-c2ccccc21 : 196 to 198 °C
NC(=O)[C@@H]1[C@H](Nc2c(Br)cnc3[nH]c(-c4cccc(N5CCOCC5)c4)nc23)[C@H]2C=C[C@@H]1C2 : 232 to 234 °C

Sure, the documented melting point for N#Cc1cc(C(=O)Nc2ccc(Cl)cn2)nc(C(F)(F)F)c1 is 208 °C

Sure, the documented melting point for Cc1cnc(CCCCNc2ncc(Cc3ccc(C)nc3)c(=O)[nH]2)c(Br)c1 is 148 to 151 °C

Sure, the documented melting point for COc1cccc2c1nc(C(F)F)n2-c1nc(NC2CCN(C(=O)OC(C)(C)C)CC2)c([N+](=O)[O-])c(N2CCOCC2)n1 is 229 to 231 °C
